Origin of measurements: paper PMC8222333

Subject of test: d-enCas12a-Ultra (Acidaminococcus sp., UniProt U2UMQ6 1-1307, E174R;S542R;K548R;M537R;F870L;D908A;E993A;D1235A)
Method: Spec-seq (native PAGE EMSA with sequencing of bound and unbound); 25 mM Tris-HCl pH 7.4, 150 mM KCl, 5 mM MgCl2, 10% glycerol, 1 mM DTT, 40 ng/uL salmon sperm DNA; 400 nM Cas12a, 480 nM crRNA, 50 nM library, 37 C 1 h; native PAGE at room temperature; high values mean tight binding;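 note: relative affinity from the bound to unbound sequence frequency ratio in Spec-seq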
Experimental setup: protein: recombinant
Threshold -0.7 lnKA. binding signal below it: Satisfied. binding signal at it or above: Not satisfied.

>  <Binder>
TTCT (dsDNA) DNA 1: GCTATCTAGTGCTCAGTACGCACTGTTCTAGGAAACTTCTGGCAGGACCAGGTCATGAGATCGGAAGAGCACACGTCTGAACTCCAGTCA DNA 2: TGACTGGAGTTCAGACGTGTGCTCTTCCGATCTCATGACCTGGTCCTGCCAGAAGTTTCCTAGAACAGTGCGTACTGAGCACTAGATAGC RNA: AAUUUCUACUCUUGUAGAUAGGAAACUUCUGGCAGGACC

>  <Class name>
Not satisfied

$$$$
>  <Binder>
AACG (dsDNA) DNA 1: GCTATCTAGTGCTCAGTACGCACTGAACGAGGAAACTTCTGGCAGGACCAGGTCATGAGATCGGAAGAGCACACGTCTGAACTCCAGTCA DNA 2: TGACTGGAGTTCAGACGTGTGCTCTTCCGATCTCATGACCTGGTCCTGCCAGAAGTTTCCTCGTTCAGTGCGTACTGAGCACTAGATAGC RNA: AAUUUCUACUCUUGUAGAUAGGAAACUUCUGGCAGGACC

>  <Class name>
Satisfied

$$$$
>  <Binder>
TCCT (dsDNA) DNA 1: GCTATCTAGTGCTCAGTACGCACTGTCCTAGGAAACTTCTGGCAGGACCAGGTCATGAGATCGGAAGAGCACACGTCTGAACTCCAGTCA DNA 2: TGACTGGAGTTCAGACGTGTGCTCTTCCGATCTCATGACCTGGTCCTGCCAGAAGTTTCCTAGGACAGTGCGTACTGAGCACTAGATAGC RNA: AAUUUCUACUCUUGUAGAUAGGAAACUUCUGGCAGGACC

>  <Class name>
Satisfied

$$$$

Now consider the entry below.
**Query** Record ATTA (dsDNA) DNA 1: GCTATCTAGTGCTCAGTACGCACTGATTAAGGAAACTTCTGGCAGGACCAGGTCATGAGATCGGAAGAGCACACGTCTGAACTCCAGTCA DNA 2: TGACTGGAGTTCAGACGTGTGCTCTTCCGATCTCATGACCTGGTCCTGCCAGAAGTTTCCTTAATCAGTGCGTACTGAGCACTAGATAGC RNA: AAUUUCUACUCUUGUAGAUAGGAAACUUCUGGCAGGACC : is its binding signal strictly below -0.7 lnKA?
**Result** Not satisfied
